Each entry below lists one item and its recorded koff value.
target: feline FcRn (FCN-F82W3, Acrobiosystems) (feline); assay: SPR Carterra, IgG coupled, pH 6.0
Quantity Kind: koff (s⁻¹)

Binder	Quantity Kind	Unit Annotation	Value Measured
anti-NGF feline IgG1a, Fc variant S428L, Q311K (antibody, part only; not given: anti-NGF variable domains, light chain, not shown: another chain or arm of the molecule; small tags and cut ends) Fc: PPEMLGGPSIFIFPPKPKDTLSISRTPEVTCLVVDLGPDDSDVQITWFVDNTQVYTAKTSPREEQFNSTYRVVSVLPILHKDWLKGKEFKCKVNSKSLPSPIERTISKAKGQPHEPQVYVLPPAQEELSRNKVSVTCLIKSFHPPDIAVEWEITGQPEPENNYRTTPPQLDSDGTYFVYSKLSVDRSHWQRGNTYTCSVLHEALHSHHTQKSLTQSPGK	koff	s⁻¹	0.0101
anti-NGF feline IgG1a, Fc variant L309V (antibody, part only; not given: anti-NGF variable domains, light chain, not shown: another chain or arm of the molecule; small tags and cut ends) Fc: PPEMLGGPSIFIFPPKPKDTLSISRTPEVTCLVVDLGPDDSDVQITWFVDNTQVYTAKTSPREEQFNSTYRVVSVLPIVHQDWLKGKEFKCKVNSKSLPSPIERTISKAKGQPHEPQVYVLPPAQEELSRNKVSVTCLIKSFHPPDIAVEWEITGQPEPENNYRTTPPQLDSDGTYFVYSKLSVDRSHWQRGNTYTCSVSHEALHSHHTQKSLTQSPGK	koff	s⁻¹	0.045
anti-NGF feline IgG1a, Fc variant S434Y, S254K (antibody, part only; not given: anti-NGF variable domains, light chain, not shown: another chain or arm of the molecule; small tags and cut ends) Fc: PPEMLGGPSIFIFPPKPKDTLSIKRTPEVTCLVVDLGPDDSDVQITWFVDNTQVYTAKTSPREEQFNSTYRVVSVLPILHQDWLKGKEFKCKVNSKSLPSPIERTISKAKGQPHEPQVYVLPPAQEELSRNKVSVTCLIKSFHPPDIAVEWEITGQPEPENNYRTTPPQLDSDGTYFVYSKLSVDRSHWQRGNTYTCSVSHEALHYHHTQKSLTQSPGK	koff	s⁻¹	0.00504
